The origin of these recorded values is ChEMBL document CHEMBL4689842.

Tested on: U2OS
Test: Multiplex assay against U2OS
Assay type: toxicity, cell-based
Details: human, 48 h, 10 µM, compound concentration 10 uM, replicate 2
Exercise: state measured Population Healthy Nuclei (%) for each of the compounds provided.
Answers are plain numbers, in %.

# batch: return Population Healthy Nuclei (%) for each of the 3 compounds below
1. CC(C)NCC(O)COc1ccc(CCOCC2CC2)cc1.Cl (stereo not drawn) [BETAXOLOL HYDROCHLORIDE]
2. CN1CCN(CCOc2cc(OC3CCOCC3)c3c(Nc4c(Cl)ccc5c4OCO5)ncnc3c2)CC1
3. CN(C)C(=O)N[C@H]1CC[C@H](CCN2CCN(c3cccc(Cl)c3Cl)CC2)CC1.Cl [CARIPRAZINE HYDROCHLORIDE]

1. 75
2. 53
3. 53

###

Test system: U2OS
Assay: Multiplex assay against U2OS
Format: toxicity, cell-based
Conditions: human, 48 h, 1 µM, compound concentration 1 uM, replicate 2
Field: label. Allowed values: rule met (Population Membrane Permeable-Phenotype (%) < 10%) or rule not met (Population Membrane Permeable-Phenotype (%) >= 10%).

Completed entries (count: 6):
Lab log: compare recorded Population Membrane Permeable-Phenotype (%) with 10%; is it strictly lower for O=C1NCN(c2ccccc2)C12CCN(CCCOc1ccc(F)cc1)CC2 [SPIRAMIDE] ?
rule met

Could you please tell me whether Population Membrane Permeable-Phenotype (%) recorded for Cl.N#Cc1ccc2[nH]cc(CCCCN3CCN(c4ccc5oc(C(N)=O)cc5c4)CC3)c2c1 [VILAZODONE HYDROCHLORIDE] is less than 10%?
rule met

Is the reported Population Membrane Permeable-Phenotype (%) for COc1cccc([C@@H](C)NCCCc2ccccc2Cl)c1.Cl [TECALCET HYDROCHLORIDE] strictly below 10%?
rule not met

Field: below-cutoff. Rule: recorded Population Membrane Permeable-Phenotype (%) strictly less than 10%. Subject: c1cn2cc(-c3ccc4cn[nH]c4c3)nc(Nc3ccc(N4CCOCC4)cc3)c2n1 [ENTOSPLETINIB]
rule not met

Quick check: Population Membrane Permeable-Phenotype (%) of `Cc1cc(C)cc(-c2cnc3cc(Cl)c(-c4cccc(O)c4)cc3c2OCCCN)c1` under 10%?
rule met

Is Population Membrane Permeable-Phenotype (%) strictly under 10% for the entry COc1ncc(-c2ccc3nccc(-c4ccnnc4)c3c2)cc1NS(=O)(=O)c1ccc(F)cc1F [OMIPALISIB] ?
rule not met

Further cases:
Would you kindly verify if Population Membrane Permeable-Phenotype (%) of CC[C@H](C)C(=O)O[C@H]1C[C@@H](C)C=C2C=C[C@H](C)[C@H](CC[C@@H]3C[C@@H](O)CC(=O)O3)[C@H]21 [LOVASTATIN] is strictly less than 10%?
rule met

# TODO verify Population Membrane Permeable-Phenotype (%) < 10% strictly for this compound: `CC(C)(O)CNc1ncc(-c2ccnc(Nc3ccnc(Cl)c3)n2)c(CC2CC2)n1`
rule not met

Determine whether this compound shows Population Membrane Permeable-Phenotype (%) lower than 10% (ties excluded): CN(C)CC#Cc1ccc(OCCCc2sc(N3CCc4cccc(C(=O)Nc5nc6ccccc6s5)c4C3)nc2C(=O)O)c(F)c1 [A-1155463]
rule not met

Does the reported Population Membrane Permeable-Phenotype (%) of the following compound sit strictly below 10%? Cc1nc(-c2ccc(-c3ccc(C(=O)N4CCc5cc6c(cc54)C4(CCN(C)CC4)CO6)cc3)c(C)c2)no1 [SB-224289]
rule met

Problem: For the compound `CN(C)C(=O)/C(C#N)=C/c1ccc(-c2nc3cnc4[nH]ccc4c3n2C2CCCCC2)o1` , is Population Membrane Permeable-Phenotype (%) under 10%?
rule met

###

System: U2OS
Assay: Multiplex assay against U2OS
Format: toxicity, cell-based
Conditions: human, 12 h, 1 µM, compound concentration 1 uM, replicate 1
Just a reminder that ties go to Criterion not met: only Population Membrane Permeable-Phenotype (%) strictly below 10% counts as Criterion met.

Quick check: does CN1CCN(c2ccc(OC(F)(F)F)c(Nc3ncc4c(n3)-c3c(c(C(N)=O)nn3CCO)CC4)c2)CC1 [ONVANSERTIB] have Population Membrane Permeable-Phenotype (%) under 10%?
Criterion not met

Others:
API: query returns whether the molecule falls strictly under 10% in Population Membrane Permeable-Phenotype (%). Query: `COc1cc(-n2cnc3cc(-c4ccc(Cl)cc4)sc3c2=O)ccc1OCCN1CCCC1`
Criterion met

Here's an entry: Cc1nc(Nc2n[nH]c3c2CN(C(=O)N[C@H](CN(C)C)c2ccccc2)C3(C)C)c2sccc2n1 [PF-03758309] . Is its Population Membrane Permeable-Phenotype (%) below 10%?
Criterion met

###

System: Fibroblast
Assay: Multiplex assay against human fibroblast
Format: toxicity, cell-based
Settings: 48 h, 1 µM, compound concentration 1 uM, replicate 2
For each of the compounds below, state its Population Pyknosed Nuclei (%).
Answers are plain numbers, in %.

Value of Population Pyknosed Nuclei (%) reported for the compound `OC1(c2ccc(Cl)cc2)CCN(Cc2c[nH]c3ccccc23)CC1` is 1

Population Pyknosed Nuclei (%) in this record for `CN(C)C(=O)/C(C#N)=C/c1ccc(-c2nc3cnc4[nH]ccc4c3n2C2CCCCC2)o1` : 2

Entry CC(C)NCC(O)COc1ccc(CCOCC2CC2)cc1.Cl (stereo not drawn) [BETAXOLOL HYDROCHLORIDE] — recorded Population Pyknosed Nuclei (%) = 4

Lab note: `CNc1nc(NCc2ccc(NS(C)(=O)=O)cc2Cl)cc(-c2ccccn2)n1` gave Population Pyknosed Nuclei (%) of 2

Kindly note the recorded Population Pyknosed Nuclei (%) for `COc1cc(-n2cnc3cc(-c4ccc(Cl)cc4)sc3c2=O)ccc1OCCN1CCCC1` , which is 2

The compound `C=CC(=O)Nc1ccc2ncnc(Nc3ccc(OCc4cccc(F)c4)c(Cl)c3)c2c1.Cc1ccc(S(=O)(=O)O)cc1` showed Population Pyknosed Nuclei (%) equal to 2

Value of measured Population Pyknosed Nuclei (%) for the entry `CC[C@H](C)C(=O)O[C@H]1C[C@@H](C)C=C2C=C[C@H](C)[C@H](CC[C@@H]3C[C@@H](O)CC(=O)O3)[C@H]21` : 9

Please look at the following compound next.
The value of Population Pyknosed Nuclei (%) measured for the compound Cl.N#Cc1ccc2[nH]cc(CCCCN3CCN(c4ccc5oc(C(N)=O)cc5c4)CC3)c2c1 [VILAZODONE HYDROCHLORIDE] turned out to be 2

###

System: U2OS
Test: Multiplex assay against U2OS
Assay type: toxicity, cell-based
Settings: human, 12 h, 10 µM, compound concentration 10 uM, replicate 2
# strict inequality: Population Apoptotic (%) < 40% yields 1, everything else yields -1

These recorded examples may help you get a feel for the data.
Is the reported Population Apoptotic (%) for `C[C@@]1(C(=O)Nc2ccc(F)nc2)CCCN1c1nc(Nc2cc(C3CC3)n[nH]2)c2cccn2n1` strictly below 40%?
1

Hi there! Is Population Apoptotic (%) for O=C1NCN(c2ccccc2)C12CCN(CCCOc1ccc(F)cc1)CC2 [SPIRAMIDE] below 40%, do you know?
-1

Quick check: Population Apoptotic (%) of `COc1cc2nccc(Oc3ccc(NC(=O)Nc4cc(C)on4)c(Cl)c3)c2cc1OC.O` under 40%?
-1

More entries:
Below 40% on Population Apoptotic (%)? Entry `CCN(CC)CCCCNc1ncc2cc(-c3cc(OC)cc(OC)c3)c(NC(=O)NC(C)(C)C)nc2n1`
1

For this compound, is Population Apoptotic (%) lower than 40%? `COc1ncc(-c2ccc3nccc(-c4ccnnc4)c3c2)cc1NS(=O)(=O)c1ccc(F)cc1F`
-1

Identify whether the compound `COc1cc(-n2cnc3cc(-c4ccc(Cl)cc4)sc3c2=O)ccc1OCCN1CCCC1` records Population Apoptotic (%) below 40%.
1

Item `OC1(c2ccc(Cl)cc2)CCN(Cc2c[nH]c3ccccc23)CC1` : Population Apoptotic (%) beneath 40%, strictly?
-1

hey, is Population Apoptotic (%) for `Cc1csc2c(N[C@@H](C)CN3CCN(S(=O)(=O)c4ccc(Cl)c(Cl)c4)CC3)ncnc12` lower than 40% or not?
-1

A record lists `Cc1cc(C)cc(-c2cnc3cc(Cl)c(-c4cccc(O)c4)cc3c2OCCCN)c1` . Is its Population Apoptotic (%) below 40%?
-1

Quick check: Population Apoptotic (%) of Cl.N#Cc1ccc2[nH]cc(CCCCN3CCN(c4ccc5oc(C(N)=O)cc5c4)CC3)c2c1 [VILAZODONE HYDROCHLORIDE] under 40%?
-1

Decide: Population Apoptotic (%) of CC(C)NCC(O)COc1ccc(CCOCC2CC2)cc1.Cl (stereo not drawn) [BETAXOLOL HYDROCHLORIDE] strictly below 40%?
1

###

Test system: U2OS
Experiment: Multiplex assay against U2OS
Format: toxicity, cell-based
Conditions: human, 12 h, 1 µM, compound concentration 1 uM, replicate 2
Cut-off 10% on Population Fragmented Nuclei (%), inclusive. At or above means Condition met; below means Condition not met.

Could you tell me if the measured Population Fragmented Nuclei (%) of `Cc1c(-c2ccc(O)cc2)n(Cc2ccc(OCCN3CCCCCC3)cc2)c2ccc(O)cc12` reaches 10% or more?
Condition met

Confirm if Population Fragmented Nuclei (%) reported for the compound CN(C)C(=O)N[C@H]1CC[C@H](CCN2CCN(c3cccc(Cl)c3Cl)CC2)CC1.Cl [CARIPRAZINE HYDROCHLORIDE] is 10% or above.
Condition not met

Answer whether Population Fragmented Nuclei (%) of `Cc1nc(-c2ccc(-c3ccc(C(=O)N4CCc5cc6c(cc54)C4(CCN(C)CC4)CO6)cc3)c(C)c2)no1` is greater than or equal to 10%.
Condition not met

Entry `CN1CCN(c2ccc(OC(F)(F)F)c(Nc3ncc4c(n3)-c3c(c(C(N)=O)nn3CCO)CC4)c2)CC1` : is its Population Fragmented Nuclei (%) no less than 10%?
Condition met

# bool: Population Fragmented Nuclei (%) of `c1cn2cc(-c3ccc4cn[nH]c4c3)nc(Nc3ccc(N4CCOCC4)cc3)c2n1` >= 10%
Condition met

Does `CC(C)C(=O)Nc1n[nH]c2cc(-c3cccc(NS(=O)(=O)C4CC4)c3)ccc12` have a reported Population Fragmented Nuclei (%) of at least 10%?
Condition met

Continuing:
Can CN1CCCC(n2nc(Cc3ccc(Cl)cc3)c3ccccc3c2=O)CC1.Cl (stereo unspecified) [AZELASTINE HYDROCHLORIDE] be said to have Population Fragmented Nuclei (%) at or above 10%?
Condition not met

For this compound, is measured Population Fragmented Nuclei (%) 10% or higher? CN1CCC[C@@H]1CCO[C@](C)(c1ccccc1)c1ccc(Cl)cc1.O=C(O)/C=C/C(=O)O [CLEMASTINE FUMARATE]
Condition met
